- System: 883617-216-R-J1-PDC complex spheroid viability;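 also: exposure lasted seven days after three days of spheroid growth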
- measurement.description: Anticancer human tumor 883617-216-R-J1-PDC patient-derived bladder carcinoma cell line growth inhibition
- condition.info: second compound 10 µM; first compound 1 µM; hits give low values
Please use Met for viability, T/C under 60% and Not met for everything else, ties included.

Example results:
INSERT INTO measurements (compound, cat) VALUES
  ('O=C(C=Cn1cnc(-c2cc(C(F)(F)F)cc(C(F)(F)F)c2)n1)NNc1cnccn1 + NC1CCC(NC2CC2c2ccccc2)CC1', 'Met'),
  ('CC1(C)CCC(CN2CCN(c3ccc(C(=O)NS(=O)(=O)c4ccc(NCC5CCOCC5)c([N+](=O)[O-])c4)c(Oc4cnc5[nH]ccc5c4)c3)CC2)=C(c2ccc(Cl)cc2)C1 + NC1CC1c1ccc(-c2cccc(O)c2)cc1', 'Not met');

Ask: Item CC1COCCN1c1cc(-c2ccnn2C)c2ccnc(-c3ccn[nH]3)c2n1 (stereo not drawn) + NC1CC1c1ccc(-c2cccc(O)c2)cc1 : viability, T/C beneath 60%, strictly?
Reply: Met

Ask: # TODO verify viability, T/C < 60% strictly for this compound: CC(C)c1c(-c2ccccc2)nc2c(C#N)c[nH]n2c1=O + NC1CC1c1ccc(-c2cccc(O)c2)cc1
Reply: Not met

Ask: Determine whether this compound shows viability, T/C lower than 60% (ties excluded): COc1ccc([C@@H](O)c2cc(-c3ncnc4cc(N5CCOCC5)ccc34)c(F)cc2Cl)nn1 + NC1CC1c1ccc(-c2cccc(O)c2)cc1
Reply: Met

Ask: Answer whether the compound COc1cc(Nc2ncc3c(n2)-c2ccc(Cl)cc2C(c2c(F)cccc2OC)=NC3)ccc1C(=O)O + NC1CC1c1ccc(-c2cccc(O)c2)cc1 has viability, T/C strictly less than 60%
Reply: Met

Ask: Given CC1(C)CCC(CN2CCN(c3ccc(C(=O)NS(=O)(=O)c4ccc(NCC5CCOCC5)c([N+](=O)[O-])c4)c(Oc4cnc5[nH]ccc5c4)c3)CC2)=C(c2ccc(Cl)cc2)C1 + NC1CCC(NC2CC2c2ccccc2)CC1 , is recorded viability, T/C strictly lower than 60%?
Reply: Not met

Ask: Record O=C(c1cc(Cc2n[nH]c(=O)c3ccccc23)ccc1F)N1CCN(C(=O)C2CC2)CC1 + NC1CC1c1ccc(-c2cccc(O)c2)cc1 : is its viability, T/C strictly below 60%?
Reply: Met

Ask: Take the compound O=C(c1cc(Cc2n[nH]c(=O)c3ccccc23)ccc1F)N1CCN(C(=O)C2CC2)CC1 + NC1CCC(NC2CC2c2ccccc2)CC1 and say whether its viability, T/C is less than 60%.
Reply: Not met

Ask: Consider COc1cc(Nc2ncc3c(n2)-c2ccc(Cl)cc2C(c2c(F)cccc2OC)=NC3)ccc1C(=O)O + NC1CCC(NC2CC2c2ccccc2)CC1 . Does its viability, T/C lie strictly below 60%?
Reply: Met

Ask: API: query returns whether the compound falls strictly under 60% in viability, T/C. Query: Nc1ncn(C2CC(O)C(CO)O2)c(=O)n1 (stereo not drawn) + NC1CC1c1ccc(-c2cccc(O)c2)cc1
Reply: Met

Ask: Please let me know if COc1ccc([C@@H](O)c2cc(-c3ncnc4cc(N5CCOCC5)ccc34)c(F)cc2Cl)nn1 + NC1CCC(NC2CC2c2ccccc2)CC1 shows viability, T/C below 60%.
Reply: Met

Ask: State whether 60% exceeds viability, T/C recorded for CC1COCCN1c1cc(C2(S(C)(=N)=O)CC2)nc(-c2ccnc3[nH]ccc23)n1 (stereo not drawn) + NC1CCC(NC2CC2c2ccccc2)CC1 .
Reply: Met
